Recorded values, source PubChem BioAssay.

# Test system: Inhibin beta A chain (activin A)
# protocol details: INHBA (activin A) binders on microarrays, primary screen, biochemical, small-molecule microarray, 635 nm fluorescence scan (AID 1107);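 note: mouse activin A protein probed at 4.33 µg/mL on printed slides; score merges bound-protein fluorescence near 667 nm with spot signal-to-noise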
# experimental setup: small-molecule microarray binding, higher = more signal
assay endpoint: composite z-score
// response body must contain only the number

O=C1[C@H]2[C@H]3[C@H](O)[C@H](O)CC(=NOC[C@@H](O)COCc4ccco4)[C@H]3CC[C@H]2C(=O)N1C[C@@H]1CCCO1 yielded composite z-score of -0.0262

molecule O=C1[C@H]2[C@H]3[C@H](O)[C@H](O)CC(=NOC[C@@H](O)COCc4ccco4)[C@H]3CC[C@H]2C(=O)N1Cc1ccccc1 , composite z-score observed: 0.764

In plain terms, C=CC[C@@H]1C=C[C@H](ON=C(C)CCC(=O)OC[C@H]2O[C@H](c3ccccc3)C=C[C@@H]2Oc2ccc(OC)cc2)[C@@H](CO)O1 has a documented composite z-score of 0.837
